# subject-of-test: HLA-A*31:01
# measurement-notes: IEDB peptide-MHC binding, purified MHC/competitive/radioactivity; filed as Kd, often an IC50 or EC50 that approximates it; bounds were set here for any values at or beyond the usual limits of such assays
# measurement-context: source organism: Dengue virus 4 Philippines/H241/1956
metric-name: Kd (nM)
Answer with a number only, understood to be in nM.

Input line: Return Kd for the following sequence: RFWELVDKER
Output line: 5.19

---

# subject-of-test: HLA-A*02:12
# measurement-notes: IEDB peptide-MHC binding, purified MHC/competitive/fluorescence; filed as Kd, often an IC50 or EC50 that approximates it; bounds were set here for any values at or beyond the usual limits of such assays
# measurement-context: source organism: Entamoeba dispar SAW760
pKd: −log10 of the molar value.
metric-name: pKd

Input line: Return pKd for the following sequence: LMTHTWHAK
Output line: ≤ 4.70

---

# subject-of-test: HLA-B*15:17
# measurement-notes: IEDB peptide-MHC binding, purified MHC/competitive/fluorescence; filed as Kd, often an IC50 or EC50 that approximates it; bounds were set here for any values at or beyond the usual limits of such assays
# measurement-context: source organism: Vibrio vulnificus YJ016
pKd: −log10 of the molar value.
metric-name: pKd

Input line: Return pKd for the following sequence: GMWCVLASR
Output line: ≤ 4.70

---

# subject-of-test: HLA-A*11:01
# measurement-notes: IEDB peptide-MHC binding, purified MHC/competitive/radioactivity; filed as Kd, often an IC50 or EC50 that approximates it; bounds were set here for any values at or beyond the usual limits of such assays
# measurement-context: source organism: Vaccinia virus WR
Labelling: Kd reported below 200 nM becomes Satisfied; at or above becomes Not satisfied.

Input line: Lab note: Kd threshold 200 nM. Does this sequence come in strictly under it? TIQRFSSLR
Output line: Satisfied

Input line: Lab note: Kd threshold 200 nM. Does this sequence come in strictly under it? QISRVNDLNR
Output line: Not satisfied

Input line: Lab note: Kd threshold 200 nM. Does this sequence come in strictly under it? FSTSAADIK
Output line: Not satisfied

Input line: Lab note: Kd threshold 200 nM. Does this sequence come in strictly under it? KSISSIFGY
Output line: Satisfied

Input line: Lab note: Kd threshold 200 nM. Does this sequence come in strictly under it? LFLLFLEITY
Output line: Not satisfied

Input line: Lab note: Kd threshold 200 nM. Does this sequence come in strictly under it? TLNGIMMNER
Output line: Not satisfied

Input line: Lab note: Kd threshold 200 nM. Does this sequence come in strictly under it? NAPIKEFKAK
Output line: Not satisfied

Input line: Lab note: Kd threshold 200 nM. Does this sequence come in strictly under it? TFIDVHIPK
Output line: Satisfied

Input line: Lab note: Kd threshold 200 nM. Does this sequence come in strictly under it? IIKSDHEFVK
Output line: Not satisfied

Input line: Lab note: Kd threshold 200 nM. Does this sequence come in strictly under it? KVSAQNISFK
Output line: Satisfied

Input line: Lab note: Kd threshold 200 nM. Does this sequence come in strictly under it? TIKYSNDNR
Output line: Not satisfied

Input line: Lab note: Kd threshold 200 nM. Does this sequence come in strictly under it? IFVDTMSIY
Output line: Not satisfied

Input line: Lab note: Kd threshold 200 nM. Does this sequence come in strictly under it? ISKIYTLIYR
Output line: Not satisfied

Input line: Lab note: Kd threshold 200 nM. Does this sequence come in strictly under it? MSHVKSVTK
Output line: Satisfied

Input line: Lab note: Kd threshold 200 nM. Does this sequence come in strictly under it? SFSLESDSIK
Output line: Not satisfied

Input line: Lab note: Kd threshold 200 nM. Does this sequence come in strictly under it? PVSMTYLYNK
Output line: Satisfied

Input line: Lab note: Kd threshold 200 nM. Does this sequence come in strictly under it? NIVTFINDY
Output line: Not satisfied

Input line: Lab note: Kd threshold 200 nM. Does this sequence come in strictly under it? DIKLDAVLDR
Output line: Not satisfied

Input line: Lab note: Kd threshold 200 nM. Does this sequence come in strictly under it? TILEYLYIMR
Output line: Not satisfied

Input line: Lab note: Kd threshold 200 nM. Does this sequence come in strictly under it? EMYPRHRYSK
Output line: Not satisfied

Input line: Lab note: Kd threshold 200 nM. Does this sequence come in strictly under it? VTGFMEEEIK
Output line: Satisfied

Input line: Lab note: Kd threshold 200 nM. Does this sequence come in strictly under it? SLVKKNKKR
Output line: Not satisfied

Input line: Lab note: Kd threshold 200 nM. Does this sequence come in strictly under it? MMFINSTCY
Output line: Satisfied

Input line: Lab note: Kd threshold 200 nM. Does this sequence come in strictly under it? NIILSKIPY
Output line: Not satisfied

Input line: Lab note: Kd threshold 200 nM. Does this sequence come in strictly under it? YIYKSGKLVK
Output line: Satisfied

Input line: Lab note: Kd threshold 200 nM. Does this sequence come in strictly under it? ITFLRPVLK
Output line: Satisfied

Input line: Lab note: Kd threshold 200 nM. Does this sequence come in strictly under it? SAEDNYLAK
Output line: Satisfied

Input line: Lab note: Kd threshold 200 nM. Does this sequence come in strictly under it? AVLSAATETY
Output line: Not satisfied

Input line: Lab note: Kd threshold 200 nM. Does this sequence come in strictly under it? SMDVLAEKK
Output line: Satisfied

Input line: Lab note: Kd threshold 200 nM. Does this sequence come in strictly under it? ELALTDVEK
Output line: Not satisfied

Input line: Lab note: Kd threshold 200 nM. Does this sequence come in strictly under it? NISIIVLFQR
Output line: Not satisfied

Input line: Lab note: Kd threshold 200 nM. Does this sequence come in strictly under it? CTDESRDRK
Output line: Not satisfied

Input line: Lab note: Kd threshold 200 nM. Does this sequence come in strictly under it? TIEILRNYLR
Output line: Satisfied

Input line: Lab note: Kd threshold 200 nM. Does this sequence come in strictly under it? ITLKIIETY
Output line: Not satisfied

Input line: Lab note: Kd threshold 200 nM. Does this sequence come in strictly under it? SVPLPCQLMY
Output line: Satisfied
